target_or_test_system: acetylcholine receptor
assay_info: SPR, AchR immobilised on CM5 chip, peptide at 10 uM
readout_label: Binding affinity (RU)
Give just the number in RU; leave the unit off.

Below, 3 binders whose answers are already recorded.
KPTGR [5mer-1185] | 30
KYNPR [5mer-1158] | 23
KETAR [5mer-876] | 16

Note: attention shifts to another entry.
-- ask Fill in the blank: the reported Binding affinity (RU) of KTNAR [5mer-1151] is ____.
-- reply 26
